The reported numbers originate from patent US20240239766A1.

Target: UniProtKB Q15858
Sequence (Q15858 other isoform, or with tags, fused parts or gaps): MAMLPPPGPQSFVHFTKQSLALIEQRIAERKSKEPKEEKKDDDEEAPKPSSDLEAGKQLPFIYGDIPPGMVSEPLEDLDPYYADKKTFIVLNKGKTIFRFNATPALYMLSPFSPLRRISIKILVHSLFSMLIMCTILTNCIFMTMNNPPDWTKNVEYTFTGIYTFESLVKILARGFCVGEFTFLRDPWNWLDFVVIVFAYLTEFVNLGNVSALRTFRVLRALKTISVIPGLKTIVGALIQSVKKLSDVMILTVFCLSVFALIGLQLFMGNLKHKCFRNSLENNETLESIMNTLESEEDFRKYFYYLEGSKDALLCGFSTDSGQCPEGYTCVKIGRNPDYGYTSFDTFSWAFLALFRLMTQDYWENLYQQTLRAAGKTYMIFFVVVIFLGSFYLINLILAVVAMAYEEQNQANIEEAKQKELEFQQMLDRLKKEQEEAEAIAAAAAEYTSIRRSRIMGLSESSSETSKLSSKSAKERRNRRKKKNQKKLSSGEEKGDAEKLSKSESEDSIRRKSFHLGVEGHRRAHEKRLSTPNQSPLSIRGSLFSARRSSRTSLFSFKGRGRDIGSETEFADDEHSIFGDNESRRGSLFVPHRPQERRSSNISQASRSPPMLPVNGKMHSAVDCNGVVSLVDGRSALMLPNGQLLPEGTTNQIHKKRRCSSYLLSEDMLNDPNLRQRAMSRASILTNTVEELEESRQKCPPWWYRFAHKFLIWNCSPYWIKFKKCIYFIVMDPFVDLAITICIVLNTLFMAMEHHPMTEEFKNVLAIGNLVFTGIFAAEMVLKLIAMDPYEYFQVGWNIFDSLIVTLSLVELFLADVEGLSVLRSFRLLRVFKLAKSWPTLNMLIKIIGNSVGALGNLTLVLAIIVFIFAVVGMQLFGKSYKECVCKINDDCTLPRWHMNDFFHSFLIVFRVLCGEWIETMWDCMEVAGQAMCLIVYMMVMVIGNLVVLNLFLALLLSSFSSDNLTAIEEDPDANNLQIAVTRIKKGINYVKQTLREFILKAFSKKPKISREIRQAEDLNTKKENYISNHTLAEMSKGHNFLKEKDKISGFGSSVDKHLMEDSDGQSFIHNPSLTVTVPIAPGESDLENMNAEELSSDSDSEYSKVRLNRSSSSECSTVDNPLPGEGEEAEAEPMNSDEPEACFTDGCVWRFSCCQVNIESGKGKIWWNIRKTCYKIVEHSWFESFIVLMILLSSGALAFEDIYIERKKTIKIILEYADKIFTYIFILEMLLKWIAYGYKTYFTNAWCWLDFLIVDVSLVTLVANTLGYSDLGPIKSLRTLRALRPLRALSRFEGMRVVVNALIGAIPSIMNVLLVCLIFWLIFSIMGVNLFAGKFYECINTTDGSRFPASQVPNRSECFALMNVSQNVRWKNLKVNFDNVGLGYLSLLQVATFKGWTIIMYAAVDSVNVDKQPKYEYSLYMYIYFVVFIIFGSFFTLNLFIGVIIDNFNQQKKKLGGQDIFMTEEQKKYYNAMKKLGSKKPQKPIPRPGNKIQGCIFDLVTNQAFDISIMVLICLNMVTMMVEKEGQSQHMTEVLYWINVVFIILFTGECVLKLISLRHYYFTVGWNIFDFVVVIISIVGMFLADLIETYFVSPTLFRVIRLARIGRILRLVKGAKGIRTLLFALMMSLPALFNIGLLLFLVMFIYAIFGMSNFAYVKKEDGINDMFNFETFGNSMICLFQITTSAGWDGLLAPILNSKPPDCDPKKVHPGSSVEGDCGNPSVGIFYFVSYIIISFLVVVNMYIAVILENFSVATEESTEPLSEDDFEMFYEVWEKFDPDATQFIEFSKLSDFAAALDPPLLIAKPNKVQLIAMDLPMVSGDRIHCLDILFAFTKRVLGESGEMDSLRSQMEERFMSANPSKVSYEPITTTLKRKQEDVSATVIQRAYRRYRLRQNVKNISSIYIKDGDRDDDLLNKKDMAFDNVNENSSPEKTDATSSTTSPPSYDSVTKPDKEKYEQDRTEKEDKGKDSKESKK
Experiment: Patch voltage clamp electrophysiology assay (EP), Syncropatch 384PE, CHO cells expressing Nav1.7
Details: holding potential −50 mV; 7.5 min compound incubation; read-out: EP SP hNav1.7 EVO (IC50)
pIC50: −log10 of the molar value. Structures can show the parent of a compound that is named as a salt.
Recorded measurements of pIC50, one per entry

- compound: "Cc1ccc(CC[C@@]2(N(C)C)CCCN(c3cc(F)c(S(=O)(=O)Nc4ccncn4)c(F)c3)C2)cc1C(F)(F)F (single isomer, unassigned)"
  pIC50: 6.60
- compound: "CN([C@H]1CCOC1)[C@]1(CCc2cccc(C(F)(F)F)c2)CCCN(c2cc(F)c(S(=O)(=O)Nc3ccncn3)c(F)c2)C1 (single isomer, unassigned)"
  pIC50: 8.77
- compound: "CN(C)[C@@]1(CCC2CCCCC2)CCCN(c2cc(F)c(S(=O)(=O)Nc3ccncn3)c(F)c2)C1 [Example 92, formate]"
  pIC50: 8.42
